Reference for the values: paper PMC6152666

Examples of molecules with documented viability at 24 h, 30 µM follow.
# experimentalProtocol: Cytotoxicity assay (MTT) in RAW264.7 cells
# Assay type: cell-based, mouse
# conditions: mouse, RAW264.7 cells; 30 μM; RAW264.7, MTT, 24 h; vehicle control = 100%; mean ± S.E., n=4; read-out: Cell Viability %
Give a bare numeral; the unit % is implied.

[[record]]
molecule = "CC(C)(O)[C@@H]1CC(=O)[C@]2(C)[C@H](CC[C@@]3(C)[C@H](c4ccoc4)OC(=O)[C@H]4O[C@]432)[C@]12COC(=O)C[C@@H]2O"
reading = 98.3

[[record]]
molecule = "CC1(C)OC(=O)C=C[C@]2(C)[C@H]3CC[C@@]4(C)[C@H](C5=CC(=O)OC5O)OC(=O)[C@H]5O[C@]54[C@]3(C)C(=O)C[C@@H]12 (stereo partly drawn)"
reading = 98.6


Query block: Record request: viability at 24 h, 30 µM value, item CC(=O)O[C@H]1CC(=O)OC(C)(C)[C@@H]2CC(=O)[C@]3(C)[C@H](CC[C@@]4(C)[C@H](C5=CC(=O)OC5O)OC(=O)[C@H]5O[C@]543)[C@@]12C (stereo partly drawn) [Compound 1, 21,23-dihydro-21-hydroxy-23-oxonomilin]
Result block: 99.3

###

# experimentalProtocol: Cytotoxicity assay (MTT) in RAW264.7 cells
# Assay type: cell-based, mouse
# conditions: mouse, RAW264.7 cells; 3 μM; RAW264.7, MTT, 24 h; vehicle control = 100%; mean ± S.E., n=4; read-out: Cell Viability %
Examples of molecules with documented viability at 24 h, 3 µM follow.
Give a bare numeral; the unit % is implied.

[[record]]
molecule = "COC(=O)CC(OC(C)=O)C1(C)C(C(C)(C)O)CC(=O)C2(C)C1CCC1(C)C(C3=CC(=O)OC3O)OC(=O)C3OC312 (stereo not drawn) [Compound 3]"
reading = 94.5

[[record]]
molecule = "CC1(C)OC(=O)C=C[C@]2(C)[C@H]3CC[C@@]4(C)[C@H](C5=CC(=O)OC5O)OC(=O)[C@H]5O[C@]54[C@]3(C)C(=O)C[C@@H]12 (stereo partly drawn) [Compound 10, kihadanin A]"
reading = 102


Query block: Record request: viability at 24 h, 3 µM value, item CC1(C)O[C@H]2CC(=O)OC[C@]23[C@H]2CC[C@@]4(C)[C@H](C5=CC(O)OC5=O)OC(=O)[C@H]5O[C@]54[C@]2(C)C(=O)C[C@@H]13 (stereo partly drawn) [Compound 8, limonexic acid]
Result block: 97.6

###

Examples of compounds with documented viability at 24 h, 1 µM follow.
# experimentalProtocol: Cytotoxicity assay (MTT) in RAW264.7 cells
# Type: cell-based, mouse
# conditions: mouse, RAW264.7 cells; 1 μM; RAW264.7, MTT, 24 h; vehicle control = 100%; mean ± S.E., n=4; read-out: Cell Viability %
Give a bare numeral; the unit % is implied.

// solved cases for viability at 24 h, 1 µM follow
[[record]]
compound = "CC1(C)O[C@H]2CC(=O)OC[C@]23[C@H]2CC[C@@]4(C)[C@H](C5=CC(=O)OC5O)OC(=O)[C@H]5O[C@]54[C@]2(C)C(=O)C[C@@H]13 (some centres unmarked)"
reading = 102

[[record]]
compound = "COC(=O)CC(OC(C)=O)C1(C)C(C(C)(C)O)CC(=O)C2(C)C1CCC1(C)C(C3=CC(=O)OC3O)OC(=O)C3OC312 (centres unmarked)"
reading = 96.8

[[record]]
compound = "CC1(C)O[C@H]2CC(=O)OC[C@]23[C@H]2CC[C@@]4(C)[C@H](C5=CCOC5=O)OC(=O)[C@H]5O[C@]54[C@]2(C)C(=O)C[C@@H]13 [Compound 5, 21,23-Dihydro-21-oxolimonin]"
reading = 97.9


Query block: Record request: viability at 24 h, 1 µM value, item CC1(C)O[C@H]2CC(=O)OC[C@]23[C@H]2CC[C@@]4(C)[C@H](c5ccoc5)OC(=O)[C@H]5O[C@]54[C@]2(C)C(=O)C[C@@H]13
Result block: 100

Query block: Record request: viability at 24 h, 1 µM value, item COC1C=C([C@@H]2OC(=O)[C@H]3O[C@@]34[C@@]2(C)CC[C@@H]2[C@@]3(C)[C@@H](OC(C)=O)CC(=O)OC(C)(C)[C@@H]3CC(=O)[C@]24C)C(=O)O1 (some centres unmarked) [Compound 2, 21,23-dihydro-23-methoxy-21-oxonomilin]
Result block: 101
